assayExplanation: % absorbed in human GI-tract
Format: ADME, organism-based
condition: in vivo, read-out: % absorbed
The threshold is 60%. Values of Fa beneath it are tagged T; values meeting or exceeding it are tagged F.

The examples below pair each entry with its known result.
[
  {
    "compound": "O=C(O)CN(CCN(CC(=O)O)Cc1ccccc1O)Cc1ccccc1O",
    "groupLabel": "T"
  },
  {
    "compound": "CCCCC(=O)N(Cc1ccc(-c2ccccc2-c2nnn[nH]2)cc1)[C@H](C(=O)O)C(C)C",
    "groupLabel": "T"
  },
  {
    "compound": "CN(Cc1cnc2nc(N)nc(N)c2n1)c1ccc(C(=O)N[C@@H](CCC(=O)O)C(=O)O)cc1 [METHOTREXATE]",
    "groupLabel": "T"
  },
  {
    "compound": "CN1CCN(C2=Nc3cc(Cl)ccc3Nc3ccccc32)CC1 [CLOZAPINE]",
    "groupLabel": "F"
  },
  {
    "compound": "CC(=O)[C@H]1CC[C@H]2[C@@H]3CCC4=CC(=O)CC[C@]4(C)[C@H]3CC[C@]12C [PROGESTERONE]",
    "groupLabel": "F"
  },
  {
    "compound": "CC(=O)N(O)CCCCCNC(=O)CCC(=O)N(O)CCCCCNC(=O)CCC(=O)N(O)CCCCCN [DEFEROXAMINE]",
    "groupLabel": "T"
  },
  {
    "compound": "C[C@]12CC[C@H]3[C@@H](CCC4=CC(=O)CC[C@@]43C)[C@@H]1CC[C@@H]2O [TESTOSTERONE]",
    "groupLabel": "F"
  },
  {
    "compound": "NC(N)=Nc1nc(CSCCC(N)=NS(N)(=O)=O)cs1 [FAMOTIDINE]",
    "groupLabel": "T"
  }
]

Query block: Here's an entry: O=C1NC(=O)C(c2ccccc2)(c2ccccc2)N1 [PHENYTOIN] . Is its Fa below 60%?
Result block: F

Query block: Try the compound CN/C(=C/[N+](=O)[O-])NCCSCc1ccc(CN(C)C)o1 [RANITIDINE]
Result block: T

Query block: Try the compound CC(C)(C)NC[C@H](O)COc1nsnc1N1CCOCC1 [TIMOLOL]
Result block: F
